The entries below come with measured pKi values attached.
Test System: cAMP-dependent protein kinase catalytic subunit alpha (Homo sapiens, UniProt P17612)
Run Description: Covalent inhibition of human recombinant PKAC-alpha assessed as inhibition constant
Note on units: pKi is unitless, being -log10 of a concentration expressed in mol/L.

Illustrative cases are given below, each with its answer.
Smi	Test System	pKi
CC[C@H](C)[C@H](NC(=O)CCC(=O)N[C@@H](CCCCNC(=O)[C@@H](CCCNC(=N)N)NC(=O)CCCCCCCC(=O)N1CCN(c2ncnc3[nH]ccc23)CC1)C(=O)N[C@H](CCCNC(=N)N)C(=O)N[C@H](CCCNC(=N)N)C(N)=O)C(=O)NCC(=O)CF	cAMP-dependent protein kinase catalytic subunit alpha (Homo sapiens, UniProt P17612)	10.64
CC[C@H](C)[C@H](NC(=O)CCC(=O)N[C@@H](CCCCNC(=O)[C@@H](CCCNC(=N)N)NC(=O)CCCCCCCC(=O)N1CCN(c2ncnc3[nH]ccc23)CC1)C(=O)N[C@H](CCCNC(=N)N)C(N)=O)C(=O)NCC(=O)CF	cAMP-dependent protein kinase catalytic subunit alpha (Homo sapiens, UniProt P17612)	9.20
CC[C@H](C)[C@H](NC(=O)CCC(=O)N[C@@H](CCCCNC(=O)[C@@H](CCCNC(=N)N)NC(=O)CCCCCCCC(=O)N1CCN(c2ncnc3[nH]ccc23)CC1)C(N)=O)C(=O)NCC(=O)CF	cAMP-dependent protein kinase catalytic subunit alpha (Homo sapiens, UniProt P17612)	8.38

Below: the item to evaluate.
Which measured pKi value corresponds to "CC[C@H](C)[C@H](NC(=O)CCC(=O)N[C@@H](CCCCNC(=O)[C@@H](CCCNC(=N)N)NC(=O)CCCCCCCC(=O)N1CCN(c2ncnc3[nH]ccc23)CC1)C(=O)N[C@H](CCCNC(=N)N)C(=O)N[C@H](CCCNC(=N)N)C(=O)N[C@H](CCCNC(=N)N)C(N)=O)C(=O)NCC(=O)CF" ?
11.17

###

Test System: cAMP-dependent protein kinase catalytic subunit alpha (Homo sapiens, UniProt P17612)
Run Description: Displacement of ARC-1063 fluorescent probe from recombinant human PKAC-alpha assessed as dissociation half life preincubated for 1 hr followed by photoluminescent probe addition by time-gated luminescence intensity based assay
Measured Property: T1/2 (s)
Use s as the unit, but write only the number.

Illustrative cases are given below, each with its answer.
Smi	T1/2 / s
CC[C@H](C)[C@H](NC(=O)CCC(=O)N[C@@H](CCCCNC(=O)[C@@H](CCCNC(=N)N)NC(=O)CCCCCCCC(=O)N1CCN(c2ncnc3[nH]ccc23)CC1)C(=O)N[C@H](CCCNC(=N)N)C(N)=O)C(=O)NCC(C)=O	30
CC[C@H](C)[C@H](NC(=O)CCC(=O)N[C@@H](CCCCNC(=O)[C@@H](CCCNC(=N)N)NC(=O)CCCCCCCC(=O)N1CCN(c2ncnc3[nH]ccc23)CC1)C(=O)N[C@H](CCCNC(=N)N)C(=O)N[C@H](CCCNC(=N)N)C(=O)N[C@H](CCCNC(=N)N)C(N)=O)C(=O)NCC(C)=O	666

Below: the item to evaluate.
Record lookup: for cAMP-dependent protein kinase catalytic subunit alpha (Homo sapiens, UniProt P17612), what T1/2 belongs to "CC[C@H](C)[C@H](NC(=O)CCC(=O)N[C@@H](CCCCNC(=O)[C@@H](CCCNC(=N)N)NC(=O)CCCCCCCC(=O)N1CCN(c2ncnc3[nH]ccc23)CC1)C(N)=O)C(=O)NCC(C)=O" ?
6

###

Test System: cAMP-dependent protein kinase catalytic subunit alpha (Homo sapiens)
Run Description: Displacement of ARC-1063 fluorescent probe from recombinant human PKAC-alpha assessed as dissociation equilibrium constant preincubated for 1 hr followed by photoluminescent probe addition by time-gated luminescence intensity based assay
The entries below come with measured Kd values attached.
Answer with the number, then the unit.

Illustrative cases are given below, each with its answer.
Smi	Test System	Measured Property	Result
CC[C@H](C)[C@H](NC(=O)CCC(=O)N[C@@H](CCCCNC(=O)[C@@H](CCCNC(=N)N)NC(=O)CCCCCCCC(=O)N1CCN(c2ncnc3[nH]ccc23)CC1)C(N)=O)C(=O)NCC(C)=O	cAMP-dependent protein kinase catalytic subunit alpha (Homo sapiens)	Kd	4.2 nM
CC[C@H](C)[C@H](NC(=O)CCC(=O)N[C@@H](CCCCNC(=O)[C@@H](CCCNC(=N)N)NC(=O)CCCCCCCC(=O)N1CCN(c2ncnc3[nH]ccc23)CC1)C(=O)N[C@H](CCCNC(=N)N)C(=O)N[C@H](CCCNC(=N)N)C(N)=O)C(=O)NCC(C)=O	cAMP-dependent protein kinase catalytic subunit alpha (Homo sapiens)	Kd	0.019 nM
CC[C@H](C)[C@H](NC(=O)CCC(=O)N[C@@H](CCCCNC(=O)[C@@H](CCCNC(=N)N)NC(=O)CCCCCCCC(=O)N1CCN(c2ncnc3[nH]ccc23)CC1)C(=O)N[C@H](CCCNC(=N)N)C(N)=O)C(=O)NCC(C)=O	cAMP-dependent protein kinase catalytic subunit alpha (Homo sapiens)	Kd	0.63 nM

Below: the item to evaluate.
Which measured Kd value corresponds to "CC[C@H](C)[C@H](NC(=O)CCC(=O)N[C@@H](CCCCNC(=O)[C@@H](CCCNC(=N)N)NC(=O)CCCCCCCC(=O)N1CCN(c2ncnc3[nH]ccc23)CC1)C(=O)N[C@H](CCCNC(=N)N)C(=O)N[C@H](CCCNC(=N)N)C(=O)N[C@H](CCCNC(=N)N)C(N)=O)C(=O)NCC(C)=O" ?
0.0049 nM

###

Run Description: Drug degradation in phosphate buffer at pH 7.4 assessed as half life at 0.15 mM at 37 degreeC measured for 30 to 60 mins by HPLC-MS analysis
Format: ADME
Condition: time 30-60 min
Measured Property: half-life at 150 µM (min)
Use min as the unit, but write only the number.

Which measured half-life at 150 µM value corresponds to "CC[C@H](C)[C@H](NC(=O)CCC(=O)N[C@@H](CCCCNC(=O)[C@@H](CCCNC(=N)N)NC(=O)CCCCCCCC(=O)N1CCN(c2ncnc3[nH]ccc23)CC1)C(=O)N[C@H](CCCNC(=N)N)C(=O)N[C@H](CCCNC(=N)N)C(N)=O)C(=O)NCC(=O)CF" ?
57

###

Test System: cAMP-dependent protein kinase catalytic subunit alpha (Homo sapiens)
Run Description: Displacement of ARC-1063 fluorescent probe from recombinant human PKAC-alpha assessed as dissociation half life preincubated for 1 hr followed by photoluminescent probe addition by time-gated luminescence intensity based assay
Measured Property: T1/2 (min)
Use min as the unit, but write only the number.

Smi	T1/2, min
CC[C@H](C)[C@H](NC(=O)CCC(=O)N[C@@H](CCCCNC(=O)[C@@H](CCCNC(=N)N)NC(=O)CCCCCCCC(=O)N1CCN(c2ncnc3[nH]ccc23)CC1)C(=O)N[C@H](CCCNC(=N)N)C(=O)N[C@H](CCCNC(=N)N)C(N)=O)C(=O)NCC(C)=O	4.5

Which measured T1/2 value corresponds to "CC[C@H](C)[C@H](NC(=O)CCC(=O)N[C@@H](CCCCNC(=O)[C@@H](CCCNC(=N)N)NC(=O)CCCCCCCC(=O)N1CCN(c2ncnc3[nH]ccc23)CC1)C(=O)N[C@H](CCCNC(=N)N)C(=O)N[C@H](CCCNC(=N)N)C(N)=O)C(=O)NCC(=O)CF" ?
19

###

The entries below come with measured IC50 values attached.
Test System: cAMP-dependent protein kinase catalytic subunit alpha (Homo sapiens, UniProt P17612)
Run Description: Inhibition of ARC-1063 fluorescent probe binding to recombinant human PKAC-alpha incubated for 1 hr by time-gated luminescence intensity based displacement assay
Use nM as the unit, but write only the number.

Illustrative cases are given below, each with its answer.
Smi	Test System	IC50, nM
CC[C@H](C)[C@H](NC(=O)CCC(=O)N[C@@H](CCCCNC(=O)[C@@H](CCCNC(=N)N)NC(=O)CCCCCCCC(=O)N1CCN(c2ncnc3[nH]ccc23)CC1)C(N)=O)C(=O)NCC(C)=O	cAMP-dependent protein kinase catalytic subunit alpha (Homo sapiens, UniProt P17612)	6100
CC[C@H](C)[C@H](NC(=O)CCC(=O)N[C@@H](CCCCNC(=O)[C@@H](CCCNC(=N)N)NC(=O)CCCCCCCC(=O)N1CCN(c2ncnc3[nH]ccc23)CC1)C(=O)N[C@H](CCCNC(=N)N)C(=O)N[C@H](CCCNC(=N)N)C(=O)N[C@H](CCCNC(=N)N)C(N)=O)C(=O)NCC(C)=O	cAMP-dependent protein kinase catalytic subunit alpha (Homo sapiens, UniProt P17612)	5.6

Below: the item to evaluate.
Which measured IC50 value corresponds to "CC[C@H](C)[C@H](NC(=O)CCC(=O)N[C@@H](CCCCNC(=O)[C@@H](CCCNC(=N)N)NC(=O)CCCCCCCC(=O)N1CCN(c2ncnc3[nH]ccc23)CC1)C(=O)N[C@H](CCCNC(=N)N)C(N)=O)C(=O)NCC(C)=O" ?
790
